experimental-protocol: TOX21_p53_BLA_p4_viability: Viability Assessment in the Tox21 HCT-116 p53 Agonism Beta-lactamase Assay, Phase 4 (AID 2283597);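 further: hits lower the luminescence signal meaning cytotoxicity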
Results filed as inconclusive are left out. Calls of active or inactive are those of the source. How the source made its calls: active means hit-call score of the fitted dose curve at least 0.9, where 1 is the maximum; inconclusive means response in the unintended direction; inactive means score below 0.9.
Outcomes: active, inactive

substance-smiles: CCN(Cc1cccnc1)C(=O)c1cccc(Cl)c1[C@]1(C)C(=O)N(Cc2ccc(OC)cc2OC)c2ccc(Cl)cc21
category: inactive
//
substance-smiles: O=C(OCCCCCCOC(=O)c1ccccc1)c1ccccc1
category: inactive
//
substance-smiles: CCOC(=O)O[C@H](C)OC(=O)c1ccc2c(c1)cc(C(=O)NC1CCN(C(C)C)CC1)n2Cc1cc(-c2ccc(Cl)s2)on1
category: active
//
substance-smiles: Cc1cccc2ccccc12
category: inactive
//
substance-smiles: O=c1[nH]sc2ccccc12
category: inactive
//
substance-smiles: Clc1cc(Cl)c2c(c1)N=C1CCCCCN1C2
category: inactive
//
substance-smiles: CCCCCCCCOC(=O)c1cc(O)c(O)c(O)c1
category: active
//
substance-smiles: CCCCOC(=O)CC(CC(=O)OCCCC)(OC(C)=O)C(=O)OCCCC
category: inactive
